Test: In vivo pharmacokinetics study
Conditions: male, ICR, mouse, plasma; mice, iv and po 3 mg/kg
Observed Property: bioavailability at 24 h (%)

* Cn1cc(-c2oc3ncnc(Oc4ccc(NC(=O)c5cccn(-c6ccc(F)cc6)c5=O)cc4)c3c2-c2cccc(N)c2)cn1 [Compound 22] | 19.2

* * *

Item-by-item account of bioavailability at 24 h
Assay: In vivo pharmacokinetics study
Settings: male, ICR, mouse, plasma; mice, iv 2 mg/kg, po 10 mg/kg
Observed Property: bioavailability at 24 h (%)

• CNc1cccc(-c2c(-c3cnn(C)c3)oc3ncnc(Oc4ccc(NC(=O)c5cccn(-c6ccc(F)cc6)c5=O)cc4)c23)c1 [Compound 29] = 0.5
• Cn1cc(-c2oc3ncnc(Oc4ccc(NC(=O)c5cccn(-c6ccc(F)cc6)c5=O)cc4)c3c2-c2cccc(N3CCNCC3)c2)cn1 [Compound 34] = 0.6
• CN(C)Cc1cccc(-c2c(-c3cnn(C)c3)oc3ncnc(Oc4ccc(NC(=O)c5cccn(-c6ccc(F)cc6)c5=O)cc4)c23)c1 [Compound 33] = 54.6
• CN(C)Cc1ccc(-c2c(-c3cnn(C)c3)oc3ncnc(Oc4ccc(NC(=O)c5cccn(-c6ccc(F)cc6)c5=O)cc4)c23)cc1 [Compound 39] = 26.2
• CN1CCN(c2cccc(-c3c(-c4cnn(C)c4)oc4ncnc(Oc5ccc(NC(=O)c6cccn(-c7ccc(F)cc7)c6=O)cc5)c34)c2)CC1 [Compound 35] = 14.8

* * *

Experiment: In vivo pharmacokinetics study
Conditions: male, ICR, mouse, plasma; mice, iv 2 mg/kg; read-out: iv T1/2 (converted)
Observed Property: half-life at 24 h (h)

• CN(C)Cc1ccc(-c2c(-c3cnn(C)c3)oc3ncnc(Oc4ccc(NC(=O)c5cccn(-c6ccc(F)cc6)c5=O)cc4)c23)cc1 = 11.2
• CN1CCN(c2cccc(-c3c(-c4cnn(C)c4)oc4ncnc(Oc5ccc(NC(=O)c6cccn(-c7ccc(F)cc7)c6=O)cc5)c34)c2)CC1 = 2.4
• CNc1cccc(-c2c(-c3cnn(C)c3)oc3ncnc(Oc4ccc(NC(=O)c5cccn(-c6ccc(F)cc6)c5=O)cc4)c23)c1 = 8.5

* * *

Test: In vitro microsomal stability assay
Assay type: in vitro ADME
Conditions: 1 μM, mouse liver microsomes, percent remaining at 30 min
Lab note: cut-off is 80%. Strictly less in Microsomal stability @ 30 min is MET. Exactly 80% or more is NOT MET.

* CN1CCN(c2cccc(-c3c(-c4cnn(C)c4)oc4ncnc(Oc5ccc(NC(=O)c6cccn(-c7ccc(F)cc7)c6=O)cc5)c34)c2)CC1 [Compound 35] | MET
* CNc1cccc(-c2c(-c3cnn(C)c3)oc3ncnc(Oc4ccc(NC(=O)c5cccn(-c6ccc(F)cc6)c5=O)cc4)c23)c1 [Compound 29] | NOT MET
* Cn1cc(-c2oc3ncnc(Oc4ccc(NC(=O)c5cccn(-c6ccc(F)cc6)c5=O)cc4)c3c2-c2cccc(N3CCNCC3)c2)cn1 [Compound 34] | NOT MET
* Cn1cc(-c2oc3ncnc(Oc4ccc(NC(=O)c5cccn(-c6ccc(F)cc6)c5=O)cc4)c3c2-c2cccc(CN)c2)cn1 [Compound 31] | MET
* CC(=O)Nc1cccc(-c2c(-c3cnn(C)c3)oc3ncnc(Oc4ccc(NC(=O)c5cccn(-c6ccc(F)cc6)c5=O)cc4)c23)c1 [Compound 28] | NOT MET
* CN(C)Cc1ccc(-c2c(-c3cnn(C)c3)oc3ncnc(Oc4ccc(NC(=O)c5cccn(-c6ccc(F)cc6)c5=O)cc4)c23)cc1 [Compound 39] | MET

* * *

Item-by-item account of iv DNAUC(0–inf)
Experiment: In vivo pharmacokinetics study
Settings: mice, iv 2 mg/kg, dose-normalized
Observed Property: iv DNAUC(0–inf) (ng·h/mL)

- CN1CCN(c2cccc(-c3c(-c4cnn(C)c4)oc4ncnc(Oc5ccc(NC(=O)c6cccn(-c7ccc(F)cc7)c6=O)cc5)c34)c2)CC1: 221.0
- CC(=O)Nc1cccc(-c2c(-c3cnn(C)c3)oc3ncnc(Oc4ccc(NC(=O)c5cccn(-c6ccc(F)cc6)c5=O)cc4)c23)c1: 766.5
- CN(C)Cc1ccc(-c2c(-c3cnn(C)c3)oc3ncnc(Oc4ccc(NC(=O)c5cccn(-c6ccc(F)cc6)c5=O)cc4)c23)cc1: 208.0
- Cn1cc(-c2oc3ncnc(Oc4ccc(NC(=O)c5cccn(-c6ccc(F)cc6)c5=O)cc4)c3c2-c2cccc(CN)c2)cn1: 483.0
- Cn1cc(-c2oc3ncnc(Oc4ccc(NC(=O)c5cccn(-c6ccc(F)cc6)c5=O)cc4)c3c2-c2cccc(N3CCNCC3)c2)cn1: 454.5

* * *

Test system: Ba/F3-MER cells
Experiment: Cell viability assay (MTS)
Type: cell-based
Conditions: 72 h
Item-by-item account of IC50
Observed Property: IC50 (nM)

- Cn1cc(-c2oc3ncnc(Oc4ccc(NC(=O)c5cccn(-c6ccc(F)cc6)c5=O)cc4)c3c2-c2ccc(N)cc2)cn1: 1.2
- Cn1cc(-c2oc3ncnc(Oc4ccc(NC(=O)c5cccn(-c6ccc(F)cc6)c5=O)cc4)c3c2-c2ccccc2N)cn1: 2.1
- Cn1cc(-c2oc3ncnc(Oc4ccc(NC(=O)c5cccn(-c6ccc(F)cc6)c5=O)cc4)c3c2-c2ccc(N3CCNCC3)cc2)cn1: 1.6
- Cc1oc2ncnc(Oc3ccc(NC(=O)c4cccn(-c5ccc(F)cc5)c4=O)cc3)c2c1-c1cccc(N)c1: 211
- Nc1cccc(-c2c(-c3cn[nH]c3)oc3ncnc(Oc4ccc(NC(=O)c5cccn(-c6ccc(F)cc6)c5=O)cc4)c23)c1: 10.6
- CN1CCN(c2cccc(-c3c(-c4cnn(C)c4)oc4ncnc(Oc5ccc(NC(=O)c6cccn(-c7ccc(F)cc7)c6=O)cc5)c34)c2)CC1: 7.5
- Nc1cccc(-c2c(Br)oc3ncnc(Oc4ccc(NC(=O)c5cccn(-c6ccc(F)cc6)c5=O)cc4)c23)c1: 428
- Nc1cccc(-c2coc3ncnc(Oc4ccc(NC(=O)c5cccn(-c6ccc(F)cc6)c5=O)cc4)c23)c1: 910
- Nc1cccc(-c2c(-c3ccsc3)oc3ncnc(Oc4ccc(NC(=O)c5cccn(-c6ccc(F)cc6)c5=O)cc4)c23)c1: 4.5
- CC(=O)Nc1cccc(-c2c(-c3cnn(C)c3)oc3ncnc(Oc4ccc(NC(=O)c5cccn(-c6ccc(F)cc6)c5=O)cc4)c23)c1: 1
- Cc1noc(C)c1-c1oc2ncnc(Oc3ccc(NC(=O)c4cccn(-c5ccc(F)cc5)c4=O)cc3)c2c1-c1cccc(N)c1: 1050
- Cn1cc(-c2oc3ncnc(Oc4ccc(NC(=O)c5cccn(-c6ccc(F)cc6)c5=O)cc4)c3c2-c2cccc(CN)c2)cn1: 7.6
- Cc1nn(C)cc1-c1oc2ncnc(Oc3ccc(NC(=O)c4cccn(-c5ccc(F)cc5)c4=O)cc3)c2c1-c1cccc(N)c1: 5.9
- Nc1cccc(-c2c(-c3cc[nH]n3)oc3ncnc(Oc4ccc(NC(=O)c5cccn(-c6ccc(F)cc6)c5=O)cc4)c23)c1: 77.1
- CNc1cccc(-c2c(-c3cnn(C)c3)oc3ncnc(Oc4ccc(NC(=O)c5cccn(-c6ccc(F)cc6)c5=O)cc4)c23)c1: 1.2
- Cn1cc(-c2oc3ncnc(Oc4ccc(NC(=O)c5cccn(-c6ccc(F)cc6)c5=O)cc4)c3c2-c2cccc(N3CCNCC3)c2)cn1: 8.4

* * *

Test: In vivo pharmacokinetics study
Settings: male, ICR, mouse, plasma; mice, iv 3 mg/kg; read-out: iv T1/2 (converted)
Observed Property: half-life at 24 h

- Cn1cc(-c2oc3ncnc(Oc4ccc(NC(=O)c5cccn(-c6ccc(F)cc6)c5=O)cc4)c3c2-c2cccc(N)c2)cn1 [Compound 22]: 360 min

* * *

Test: In vivo pharmacokinetics study
Details: male, ICR, mouse, plasma; mice, iv 2 mg/kg; read-out: iv Vss
Item-by-item account of log10 Vd at 24 h
Observed Property: log10 Vd at 24 h (log10 of the value in L/kg)

- CC(=O)Nc1cccc(-c2c(-c3cnn(C)c3)oc3ncnc(Oc4ccc(NC(=O)c5cccn(-c6ccc(F)cc6)c5=O)cc4)c23)c1 [Compound 28]: 1.02
- CN1CCN(c2cccc(-c3c(-c4cnn(C)c4)oc4ncnc(Oc5ccc(NC(=O)c6cccn(-c7ccc(F)cc7)c6=O)cc5)c34)c2)CC1 [Compound 35]: 0.87
- CN(C)Cc1ccc(-c2c(-c3cnn(C)c3)oc3ncnc(Oc4ccc(NC(=O)c5cccn(-c6ccc(F)cc6)c5=O)cc4)c23)cc1 [Compound 39]: 0.90
- CNc1cccc(-c2c(-c3cnn(C)c3)oc3ncnc(Oc4ccc(NC(=O)c5cccn(-c6ccc(F)cc6)c5=O)cc4)c23)c1 [Compound 29]: 0.11
- Cn1cc(-c2oc3ncnc(Oc4ccc(NC(=O)c5cccn(-c6ccc(F)cc6)c5=O)cc4)c3c2-c2cccc(N3CCNCC3)c2)cn1 [Compound 34]: 1.15
- Cn1cc(-c2oc3ncnc(Oc4ccc(NC(=O)c5cccn(-c6ccc(F)cc6)c5=O)cc4)c3c2-c2cccc(CN)c2)cn1 [Compound 31]: 1.00

* * *

Tested on: Ba/F3-MER cells
Assay: Cell viability assay (MTS)
Format: cell-based
Conditions: 72 h
Observed Property: IC50

* CN(C)c1cccc(-c2c(-c3cnn(C)c3)oc3ncnc(Oc4ccc(NC(=O)c5cccn(-c6ccc(F)cc6)c5=O)cc4)c23)c1 | 13.4 nM
* CNCc1cccc(-c2c(-c3cnn(C)c3)oc3ncnc(Oc4ccc(NC(=O)c5cccn(-c6ccc(F)cc6)c5=O)cc4)c23)c1 | 5 nM
* CC(=O)Nc1ccc(-c2c(-c3cnn(C)c3)oc3ncnc(Oc4ccc(NC(=O)c5cccn(-c6ccc(F)cc6)c5=O)cc4)c23)cc1 | 0.4 nM
* Cn1cc(-c2cc3c(Oc4ccc(NC(=O)c5cccn(-c6ccc(F)cc6)c5=O)cc4)ncnc3o2)cn1 | 172 nM
* CN1CCN(c2ccc(-c3c(-c4cnn(C)c4)oc4ncnc(Oc5ccc(NC(=O)c6cccn(-c7ccc(F)cc7)c6=O)cc5)c34)cc2)CC1 | 0.7 nM
* C=CC(=O)Nc1cccc(-c2c(-c3ccccc3)oc3ncnc(Oc4ccc(NC(=O)C5(C(=O)Nc6ccc(F)cc6)CC5)cc4)c23)c1 | 618 nM

Every entry's value here was drawn from paper PMC11247487.
